The origin of these recorded values is PubChem BioAssay AID1159580.

Test: chemical genetic growth profiling, strain panel (AID 1159580);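 note: tested at 20 µM; growth read once vehicle control cultures reached saturation at 30 °C; 1 = growth at the plate median or of vehicle wells; lower values mean less growth of the strain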
Conditions: S. cerevisiae deletion strains, growth OD, locus YCL011C, strain gbp2, hits give low values
The campaign covered roughly 5,500 compounds. About 2,000 (36%) were called active. Roughly 18% stayed inconclusive and do not appear here. Some of the results follow.
Record form. Attribute: normalized growth. Fill in for each entry.
Answers are plain numbers.

Solved cases (5 shown):
molecule	numericResult
O=C(O)c1cccnc1C(=O)O	1.02
O=C1C=CC(=O)c2c(O)cccc21	0.978
COc1ccccc1OCC(O)COC(N)=O (stereo unspecified)	0.979
CC(=O)NC1C(O)OC(COS(=O)(=O)O)C(OC2OC(C(=O)O)C(OC3OC(CO)C(OC4OC(C(=O)O)C(O)C(O)C4OS(=O)(=O)O)C(OS(=O)(=O)O)C3NS(=O)(=O)O)C(O)C2OS(=O)(=O)O)C1O (stereo unspecified)	0.976
CCCc1ncc(C[n+]2ccccc2C)c(N)n1	1

Hi! Can you tell me normalized growth for each of these molecules?
1. Cc1cc2nc3c(=O)[nH]c(=O)nc-3n(CC(O)C(O)C(O)CO)c2cc1C (stereo unspecified)
2. C=C[C@H]1CN2CC[C@H]1C[C@H]2[C@H](O)c1ccnc2ccccc12
3. O=C(O)CCC(=O)OC[C@@H](NC(=O)C(Cl)Cl)[C@H](O)c1ccc([N+](=O)[O-])cc1
4. O=C(N[C@@H](CO)[C@H](O)c1ccc([N+](=O)[O-])cc1)C(Cl)Cl

Return:
1: 0.987; 2: 1.01; 3: 0.942; 4: 1.02

# return normalized growth for each item in the list
1. CCC1(C2=NCCN2)Cc2ccccc2O1 (stereo unspecified)
2. Oc1cc2c(cc1O)C(c1ccccc1)CNCC2 (stereo unspecified)

Return:
1: 1.02; 2: 0.984

====

Assay: chemical genetic growth profiling, strain panel (AID 1159580)
Details: S. cerevisiae deletion strains, growth OD, locus YLR370C, strain arc18, hits give low values
About 2,000 (36%) of roughly 5,500 compounds were called active. Inconclusive results (about 18%) are left out. This is one part of the list.
property: normalized growth
Answers are plain numbers.

Known normalized growth results, listed for orientation:
compound	normalized growth
COc1ccc(CC(=O)c2ccc(O)cc2O)cc1	0.978
CCC[C@@H]1C[C@@H](C(=O)N[C@H]([C@H]2O[C@H](SC)[C@H](O)[C@@H](O)[C@H]2O)[C@H](C)O)N(C)C1	0.972
O=C(c1ccccc1)c1ccc2n1CCC2C(=O)O (stereo unspecified)	1.01
CNC(=O)Oc1ccccc1OC(C)C	0.992
CC[C@H]1OC(=O)[C@H](C)[C@@H](O[C@H]2C[C@@](C)(OC)[C@@H](O)[C@H](C)O2)[C@H](C)[C@@H](O[C@@H]2O[C@H](C)C[C@H](N(C)C)[C@H]2O)[C@](C)(O)C[C@@H](C)/C(=N/OCOCCOC)[C@H](C)[C@@H](O)[C@]1(C)O	1.01

Provide normalized growth values for the following items, in order.
1. COc1ccc([C@@H](C)C(=O)c2ccc(O)cc2O)cc1
2. COc1cc(O)ccc1C(C)=O

Return:
0.974
1.02

Give normalized growth for each of the items listed below.
1. COc1cc(OC)c2c(OC)c(-c3ccc4c(c3)OCO4)c(=O)oc2c1
2. CC(=CC1CCC(C)C2CCC(C)=C12)C(=O)O (stereo unspecified)
3. CCCc1ncc(C[n+]2ccccc2C)c(N)n1

Return:
1. 0.981
2. 0.906
3. 0.997

Count: 3. Required value per item: normalized growth.
1. CC(=O)OC1CCC2(O)CC1(C)CCC1C2CC1(C)C (stereo unspecified)
2. O=C(O)C1=C(CSc2nnnn2CS(=O)(=O)O)CS[C@@H]2C(NC(=O)[C@H](O)c3ccccc3)C(=O)N12 (stereo partly specified)
3. CC(=CC1CCC(C)C2C1=C(C)CC2O)C(=O)O (stereo unspecified)

Return:
1: 1.02; 2: 0.971; 3: 0.997

====

I'd appreciate it if you could supply normalized growth values for the items below.
Experiment: chemical genetic growth profiling, strain panel (AID 1159580)
Conditions: S. cerevisiae deletion strains, growth OD, locus YNL233W, strain BNI4, hits give low values
Screen size: about 5,500 compounds; about 2,000 (36%) were called active. Another 18% or so got no clear call; they are omitted. Some of the results follow.
Give bare numbers.

Below, each entry is followed by its recorded normalized growth result.
In [3]: df
Out[3]:
                                   compound  numericresult
0         CC(C)Cn1c(=O)n(C)c(=O)c2[nH]cnc21          0.998
1  COc1cc(OC)c2c(OC)c(-c3ccc4c(c3)OCO4)c(=O)oc2c1          0.965
2  COc1cc([C@@H]2c3cc4c(cc3[C@H](O)[C@H]3COC(=O)[C@H]23)OCO4)cc(OC)c1OC           1.03
3  CN1CCCCC1c1ccc(-c2cccnc2)nc1 (stereo not given)           1.07

Note: attention shifts to another entry.
// COc1ccc(-c2c(O)c3c(OC)c4c(cc3oc2=O)OC(C)(C)C=C4)cc1 : normalized growth value = 0.965

====

Test: chemical genetic growth profiling, strain panel (AID 1159580);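 note: tested at 20 µM; growth read once vehicle control cultures reached saturation at 30 °C; 1 = growth at the plate median or of vehicle wells; lower values mean less growth of the strain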
Settings: S. cerevisiae deletion strains, growth OD, locus YKR026C, strain gcn3
About 2,000 (36%) of roughly 5,500 compounds were called active. Roughly 18% stayed inconclusive and do not appear here. Rule as the data show it: active = normalized growth mostly below about 0.91 (no sharp cut-off); inconclusive = no clear call, values can overlap the other calls; inactive = mostly above about 0.92. Some of the results follow.
Mark one answer only. Choices: TRUE (active), FALSE (inactive)

Before answering, review these 5 worked examples.
>>> print(df.to_string())
                                   molecule  qualitativelabel
0  O=C(N[C@@H](CO)[C@H](O)c1ccc([N+](=O)[O-])cc1)C(Cl)Cl             FALSE
1                    CNC(=O)Oc1ccccc1OC(C)C             FALSE
2  NC(=NCCCCCCN=C(N)N=C(N)Nc1ccc(Cl)cc1)N=C(N)Nc1ccc(Cl)cc1              TRUE
3  COc1ccc(-c2c(O)c3c(OC)c4c(cc3oc2=O)OC(C)(C)C=C4)cc1             FALSE
4  COc1cc(OC)c2c(OC)c(-c3ccc4c(c3)OCO4)c(=O)oc2c1             FALSE

Enquiry: Fill in: this test's call for C=C(C)C1Cc2c(ccc3c(=O)c4c(oc23)COc2cc(OC)c(OC)cc2-4)O1 (stereo not given) is ___
Return: FALSE

Enquiry: Which outcome did this test record for the molecule O=C(/C=C/c1ccc(O)cc1)c1ccc(O)cc1O ?
Return: FALSE

====

Assay: chemical genetic growth profiling, strain panel (AID 1159580);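 note: tested at 20 µM; growth read once vehicle control cultures reached saturation at 30 °C; 1 = growth at the plate median or of vehicle wells; lower values mean less growth of the strain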
Conditions: S. cerevisiae deletion strains, growth OD, locus YPL209C, strain IPL1, hits give low values
Screen size: about 5,500 compounds; about 2,000 (36%) were called active. Not shown: some 18% with an inconclusive outcome. The list shows a part of the results.
property: normalized growth
Answers are plain numbers.

In [3]: df
Out[3]:
                                   compound  numericresult
0  Cc1csc2c(N3CCN(C(=S)Nc4ccc(C(F)(F)F)cc4)CC3)ncnc12          0.984
1  CC(C)Sc1c(Cl)cccc1NC(=O)Nc1cccc(C(F)(F)F)c1          0.976
2    CCOC(=O)c1ccc(N=Cc2cc(Cl)cc(Cl)c2O)cc1          0.952
3                  COC(=S)Nc1cc(Cl)cc(Cl)c1          0.935
4              CC(C)OC(=O)Nc1cc(Cl)cc(Cl)c1          0.973
5  CC(C)(C)c1ccc(-c2cc(NC(=O)c3ccc(Cl)cc3)n[nH]2)cc1           1.01

For every item below, please supply its normalized growth.
1. O=C(Nc1ccccc1Sc1ccc(C(F)(F)F)cc1[N+](=O)[O-])C(Cl)Cl
2. Cc1cc(N=Cc2cc(Cl)cc(Cl)c2O)no1
3. FC(F)(F)c1c2c(nc3cc(-c4ccco4)nn13)CCC2
4. Cc1cc(C)c2cc(C(=O)NCCNc3ccc(C(F)(F)F)cn3)[nH]c2c1

Return:
0.992
0.969
0.972
0.976

====

For each record, write down the corresponding normalized growth.
Assay: chemical genetic growth profiling, strain panel (AID 1159580);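 note: tested at 20 µM; growth read once vehicle control cultures reached saturation at 30 °C; 1 = growth at the plate median or of vehicle wells; lower values mean less growth of the strain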
Settings: S. cerevisiae deletion strains, growth OD, locus YLR058C, strain SHM2 (second series), hits give low values
Among all 5,500 compounds or so, about 2,000 (36%) were called active. About 18% were inconclusive and are not listed. Some of the results follow.

Worked examples follow.
In [3]: df
Out[3]:
                                   molecule            result
0  Cc1nc(C(F)(F)F)nc(Sc2n[nH]c(-c3cc(Cl)cc(Cl)c3)n2)c1C  0.998 (inactive)
1  Cn1c(Sc2ccc(C(F)(F)F)cc2[N+](=O)[O-])nnc1C(F)(F)F   1.01 (inactive)

For each of the molecules below, note its normalized growth.
1. N/C(=N/O)c1cnccc1C(F)(F)F
2. Nc1nc(Sc2cc(-n3cccc3)c(Cl)cc2[N+](=O)[O-])n[nH]1

Return:
0.993 (inactive)
1 (inactive)
